test system: influenza virus (subtype H1N1); conditions: influenza virus (subtype, 2 h)
pIC50: −log10 of the molar value. Where a SMILES comes first, the peptide text is derived from it. [ ]: non-standard residue; d: D form. dHyp = O=C(O)[C@H]1C[C@H](O)CN1
resultType: pIC50

pIC50 measured on CC[C@H](C)[C@H](NC(=O)[C@H](CCCNC(=N)N)NC(=O)[C@H]1C[C@H](O)CN1C(=O)[C@@H](CC(C)C)NC(=O)[C@H](Cc1ccccc1)NC(=O)[C@H](CCCCN)NC(=O)[C@H](CO)NC(=O)[C@H](Cc1ccccc1)NC(=O)[C@H](Cc1c[nH]c2ccccc12)NC(=O)[C@@H]1CCCN1C(=O)[C@@H](NC(=O)[C@@H](N)Cc1ccccc1)C(C)C)C(=O)N[C@@H](CC(C)C)C(N)=O [TL5] (H-FVPWFSKF[dL][dHyp]RIL-NH2) = < 4.30

* * *

system: MeV; settings: 2 h
Where a SMILES comes first, the peptide text is derived from it. [ ]: non-standard residue; d: D form. dHyp = O=C(O)[C@H]1C[C@H](O)CN1; Aic = NC1(C(=O)O)Cc2ccccc2C1; Nle = CCCC[C@H](N)C(=O)O
resultType: IC90

Bench note, MeV: entry CC[C@H](C)[C@H](NC(=O)[C@H](CCCNC(=N)N)NC(=O)[C@H]1C[C@H](O)CN1C(=O)[C@@H](CC(C)C)NC(=O)[C@H](Cc1ccccc1)NC(=O)[C@H](CCCCN)NC(=O)[C@H](CO)NC(=O)[C@H](Cc1ccccc1)NC(=O)[C@H](Cc1c[nH]c2ccccc12)NC(=O)[C@@H]1CCCN1C(=O)[C@@H](NC(=O)[C@@H](N)Cc1ccccc1)C(C)C)C(=O)N[C@@H](CC(C)C)C(N)=O [TL5] (H-FVPWFSKF[dL][dHyp]RIL-NH2) , its IC90 = > 50 µM

Entry CCCC[C@H](NC(=O)[C@@H](CC(C)C)NC(=O)[C@H](Cc1ccccc1)NC(=O)[C@H](CCCCN)NC(=O)[C@H](CO)NC(=O)[C@H](Cc1ccccc1)NC(=O)[C@H](Cc1c[nH]c2ccccc12)NC(=O)[C@@H]1CCCN1C(=O)[C@@H](NC(=O)[C@@H](N)Cc1ccccc1)C(C)C)C(=O)N[C@@H](CCCNC(=N)N)C(=O)N[C@H](C(=O)N[C@@H](CC(C)C)C(N)=O)[C@@H](C)CC [TL6] (H-FVPWFSKF[dL][Nle]RIL-NH2) , MeV data, IC90 value: > 50 µM

Tested on MeV, the item CC[C@H](C)[C@H](NC(=O)[C@H](CCCNC(=N)N)NC(=O)C1(NC(=O)[C@@H](CC(C)C)NC(=O)[C@H](Cc2ccccc2)NC(=O)[C@H](CCCCN)NC(=O)[C@H](CO)NC(=O)[C@H](Cc2ccccc2)NC(=O)[C@H](Cc2c[nH]c3ccccc23)NC(=O)[C@@H]2CCCN2C(=O)[C@@H](NC(=O)[C@@H](N)Cc2ccccc2)C(C)C)Cc2ccccc2C1)C(=O)N[C@@H](CC(C)C)C(N)=O [TL12] (H-FVPWFSKF[dL][Aic]RIL-NH2) showed IC90 equal to > 50 µM

* * *

tested on: MeV; details: 2 h
Where a SMILES comes first, the peptide text is derived from it. [ ]: non-standard residue; d: D form.
resultType: IC90

// compound CC[C@H](C)[C@H](NC(=O)[C@H](CCCNC(=N)N)NC(=O)[C@H](CCCCN)NC(=O)[C@@H](CC(C)C)NC(=O)[C@H](Cc1ccccc1)NC(=O)[C@H](CCCCN)NC(=O)[C@H](CO)NC(=O)[C@H](Cc1ccccc1)NC(=O)[C@H](Cc1c[nH]c2ccccc12)NC(=O)[C@@H]1CCCN1C(=O)[C@@H](NC(=O)[C@@H](N)Cc1ccccc1)C(C)C)C(=O)N[C@@H](CC(C)C)C(N)=O [TL8] (H-FVPWFSKF[dL]KRIL-NH2) , assay MeV, IC90 value: > 50 µM

The reported MeV IC90 of CC[C@H](C)[C@H](NC(=O)[C@H](CCCNC(=N)N)NC(=O)[C@@H](Cc1c[nH]c2ccccc12)NC(=O)[C@@H](CC(C)C)NC(=O)[C@H](Cc1ccccc1)NC(=O)[C@H](CCCCN)NC(=O)[C@H](CO)NC(=O)[C@H](Cc1ccccc1)NC(=O)[C@H](Cc1c[nH]c2ccccc12)NC(=O)[C@@H]1CCCN1C(=O)[C@@H](NC(=O)[C@@H](N)Cc1ccccc1)C(C)C)C(=O)N[C@@H](CC(C)C)C(N)=O [TL11] (H-FVPWFSKF[dL][dW]RIL-NH2) is > 50 µM
